# IC50 activity group, enzyme release assay values compiled below
- target: human C5aR (CD88) (human, UniProt P21730 1-350)
- Sequence (looked up): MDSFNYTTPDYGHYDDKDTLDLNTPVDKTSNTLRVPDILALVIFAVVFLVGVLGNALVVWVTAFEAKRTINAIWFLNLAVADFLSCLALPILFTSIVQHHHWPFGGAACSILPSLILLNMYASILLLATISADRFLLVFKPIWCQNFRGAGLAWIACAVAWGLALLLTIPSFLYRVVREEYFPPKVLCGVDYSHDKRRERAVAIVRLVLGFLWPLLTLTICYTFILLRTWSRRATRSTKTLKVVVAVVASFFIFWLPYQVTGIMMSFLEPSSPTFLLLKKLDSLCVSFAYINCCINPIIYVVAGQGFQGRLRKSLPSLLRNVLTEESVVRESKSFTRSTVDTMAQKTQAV
- protocolSummary: cell-based or functional assay

Take a look at these entries with their results.
1. Ac-Phe-Orn-Pro-cha-Bta-2Ni-NH2 (peptide) | < 50 nM
2. (-CO-CH2-CH2-CO-)-Phe-Orn-Pro-cha-Bta-Phe-NH2 (peptide) | < 2000 nM
3. Ac-Phe-Orn-Pro-hle-Egy-Phe-NH2 (peptide) | < 200 nM
4. Ac-Phe-Orn-Pro-hle-Bta-Pcf-NH2 (peptide) | < 200 nM
5. Ac-Phe-Cit-Hyp-hle-Bta-Phe-NH2 (peptide) | < 200 nM

For Ac-Off-Orn-Pro-cha-Bta-Phe-NH2 (peptide) the substance record lists IC50 activity group, enzyme release assay as < 50 nM

For Ac-Phe-Ffa-Aze-cha-Bta-Phe-NH2 (peptide) the substance record lists IC50 activity group, enzyme release assay as < 50 nM

For Ac-Phe-Guf-Pro-cha-Bta-Phe-NH2 (peptide) the substance record lists IC50 activity group, enzyme release assay as < 50 nM

For Ac-Phe-Orn-Pro-cha-Bta-Eaa-NH2 (peptide) the substance record lists IC50 activity group, enzyme release assay as < 200 nM

For Ac-Phe-Orn-Pro-hle-Bta-Tyr-NH2 (peptide) the substance record lists IC50 activity group, enzyme release assay as < 200 nM

For Ac-Phe-Orn-Aze-cha-Trp-Phe-NH2 (peptide) the substance record lists IC50 activity group, enzyme release assay as < 50 nM

For Ac-Phe-Orn-Pro-hle-Pff-Mmy-NH2 (peptide) the substance record lists IC50 activity group, enzyme release assay as < 200 nM

For Ac-Phe-Orn-Pro-hle-Egz-Phe-NH2 (peptide) the substance record lists IC50 activity group, enzyme release assay as < 200 nM

For Ac-Phe-Eep-Pro-cha-Bta-Phe-NH2 (peptide) the substance record lists IC50 activity group, enzyme release assay as < 200 nM
